- tested-on: Recombinant human glycogen synthase kinase 3β (Homo sapiens, UniProt P49841)
- Construct: purchased Upstate 14-306
- Sequence (P49841 whole entry): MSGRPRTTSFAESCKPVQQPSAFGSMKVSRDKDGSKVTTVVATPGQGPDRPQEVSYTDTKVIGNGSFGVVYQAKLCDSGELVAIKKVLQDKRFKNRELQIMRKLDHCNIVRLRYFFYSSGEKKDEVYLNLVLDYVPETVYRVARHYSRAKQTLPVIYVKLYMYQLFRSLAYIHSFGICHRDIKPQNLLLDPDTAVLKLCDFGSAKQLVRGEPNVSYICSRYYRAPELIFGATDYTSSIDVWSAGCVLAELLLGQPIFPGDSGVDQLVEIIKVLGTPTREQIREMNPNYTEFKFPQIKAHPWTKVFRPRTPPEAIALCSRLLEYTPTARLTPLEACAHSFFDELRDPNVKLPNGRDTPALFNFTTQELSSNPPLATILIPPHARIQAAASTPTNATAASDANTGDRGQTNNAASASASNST
- test-details: GSK-3β inhibition (radiometric 33P-ATP, GS-2 peptide substrate)
- Format: biochemical
- assay-context: 25 μM compound; remaining GSK-3 activity
For each record, check the reported % GSK-3 Activity: if it is below 8% write true, else write false.

Past entries and their recorded results:
line-notation: O=C(Cc1cccnc1)Nc1nccs1
category: false
--
line-notation: O=C(Cc1cccnc1)Nc1ncc([N+](=O)[O-])s1
category: true
--
line-notation: O=C(CCc1cccnc1)Nc1ncc([N+](=O)[O-])s1
category: false
--
line-notation: O=C(Cc1ccccc1)Nc1ncc([N+](=O)[O-])s1
category: false
--
line-notation: O=C(Cc1cccnc1)Nc1ncc(Cl)s1
category: true
--
line-notation: O=C(Nc1ncc([N+](=O)[O-])s1)c1ccccn1
category: false

IN: Input `O=C(Cc1ccccn1)Nc1ncc([N+](=O)[O-])s1` ; condition: % GSK-3 Activity strictly below 8%. Does it hold?
OUT: false
